# Measurement notes: in vivo
# Measurement parameters: mouse, plasma, iv, 1 mg/kg
# Description: Plasma clearance in mouse at 1 mpk, iv

Compound | Readout unit | clearance
CCc1sc2ncnc(N[C@H](Cc3ccccc3)C(=O)O)c2c1-c1ccc(OCCN2CCN(C)CC2)c(Cl)c1C (stereo in doubt; 17a) | mL/min/kg | 33

---

This listing pairs compounds with measured pKi.
# Test system: Bcl-2-like protein 1 (Homo sapiens)
# Sequence (Q07817 whole entry): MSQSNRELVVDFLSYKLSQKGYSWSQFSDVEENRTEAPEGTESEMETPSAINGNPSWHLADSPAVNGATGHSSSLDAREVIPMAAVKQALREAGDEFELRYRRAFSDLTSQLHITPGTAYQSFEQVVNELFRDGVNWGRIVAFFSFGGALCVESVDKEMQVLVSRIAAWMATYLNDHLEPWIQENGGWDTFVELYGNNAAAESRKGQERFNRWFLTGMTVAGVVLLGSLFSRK
pKi: −log10 of the molar value.

Compound | pKi
CCc1sc2nc(-c3cccnc3)nc(N[C@H](C)C(=O)O)c2c1-c1cccc(Oc2ccc(F)cc2)c1 | 4.74
CCc1sc2ncnc(N[C@@H](Cc3ccccc3)C(=O)O)c2c1-c1cccc(Oc2ccc(F)cc2)c1 | 4.74
CCc1sc2ncnc(N[C@H](CC3CCCCC3)C(=O)O)c2c1-c1cccc(Oc2ccc(F)cc2)c1 | 4.77
CCc1sc2ncnc(N[C@H](C(=O)O)c3ccccc3)c2c1-c1cccc(O)c1 | 3.97
CCc1sc2ncnc(N[C@@H](C)C(=O)O)c2c1-c1ccc(SC)cc1 | 3.67
CCc1sc2ncnc(NC(C(=O)O)c3ccccc3)c2c1-c1cccc(Oc2ccc(F)cc2)c1 (racemic) | 4.82
CCc1sc2ncnc(N[C@@H](C)C(=O)O)c2c1-c1cccc(Oc2ccc(F)cc2)c1 | 4.48
CCc1sc2ncnc(N[C@H](Cc3ccccc3)C(=O)O)c2c1-c1cccc(Oc2ccc(F)cc2)c1 | 4.62

---

# Measurement notes: in vivo
# Measurement parameters: mouse, po, 3 mg/kg
# Description: AUCt in mouse at 3 mpk, po
Reported property: AUC(0-t) (ng·h/mL)

Compound | Readout unit | Value reported
CCc1sc2ncnc(N[C@H](Cc3ccccc3)C(=O)O)c2c1-c1ccc(OCCN2CCN(C)CC2)c(Cl)c1C (stereo in doubt; 17a) | ng·h/mL | 168
